Where do these numbers come from? They come from paper PMC8400540.

- SYSTEM: butyrylcholinesterase from equine serum (EqBChE) (Equus caballus, UniProt P81908)
- Construct: butyrylcholinesterase from equine serum (eqBChE)
- Sequence (P81908 whole entry): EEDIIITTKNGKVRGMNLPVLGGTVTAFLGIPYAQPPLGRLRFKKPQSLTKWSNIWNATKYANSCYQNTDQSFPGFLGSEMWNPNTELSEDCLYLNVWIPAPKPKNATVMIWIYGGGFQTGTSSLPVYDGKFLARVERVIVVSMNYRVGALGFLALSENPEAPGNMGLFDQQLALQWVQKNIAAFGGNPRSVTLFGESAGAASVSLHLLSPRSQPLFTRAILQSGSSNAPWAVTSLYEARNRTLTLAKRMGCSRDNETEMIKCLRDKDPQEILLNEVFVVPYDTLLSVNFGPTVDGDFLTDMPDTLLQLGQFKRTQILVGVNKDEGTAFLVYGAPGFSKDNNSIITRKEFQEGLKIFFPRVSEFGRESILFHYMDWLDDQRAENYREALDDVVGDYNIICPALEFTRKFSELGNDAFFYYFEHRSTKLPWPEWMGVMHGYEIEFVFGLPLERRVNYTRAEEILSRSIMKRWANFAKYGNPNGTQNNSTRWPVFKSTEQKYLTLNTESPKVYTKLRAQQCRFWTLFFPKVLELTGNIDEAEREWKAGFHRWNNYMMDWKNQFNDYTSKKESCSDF
- PROCEDURE DETAILS: biochemical
- RUN PARAMETERS: EqBChE; mean ± SD, n = three independent experiments
- Protocol: Initially, acetylcholinesterase and butyrylcholinesterase inhibitory activities of the compounds were screened at the concentration of 100 µM. […] The raw data of IC50 in this study were able to be accessed in Supplementary Materials. […] The percentage of enzyme inhibitory activity (%Inhibition) was calculated by the following expression: %Inhibition = ((Mean velocity of blank-Mean velocity of sample) × 100)/Mean velocity of blank.
The entries below come with measured IC50 values attached.
MEASUREMENT TYPE: IC50 (µM)

| COMPOUND | DATA VALUE |
| --- | --- |
| c1ccc2nccnc2c1 [Compound 3a, Quinoxaline] | 40.6 |
| O=[N+]([O-])c1ccc2ncc(-c3ccccc3)nc2c1 [Compound 5b, 7-Nitro-2-phenylquinoxaline] | 61 |
| c1ccc(-c2cnc3ccccc3n2)cc1 [Compound 3b, 2-Phenylquinoxaline] | 14.9 |
| O=[N+]([O-])c1ccc2nccnc2c1 [Compound 5a, 6-Nitroquinoxaline] | 42 |

====

The entries below come with measured inhibition at 100 µM values attached.
- SYSTEM: butyrylcholinesterase from equine serum (EqBChE) (Equus caballus, UniProt P81908)
- Construct: butyrylcholinesterase from equine serum (eqBChE); purchased Sigma-Aldrich; host or cells: equine serum
- PROCEDURE DETAILS: biochemical
- Assay type: biochemical
- RUN PARAMETERS: at 100 µM; mean ± SD, n = three; read-out: %Inhibition BChE

| COMPOUND | inhibition at 100 µM, % |
| --- | --- |
| Cc1nc2ccccc2nc1C [Compound 3c, 2,3-Dimethylquinoxaline] | 23.4 |
| Cc1nc2ccc([N+](=O)[O-])cc2nc1C [Compound 5c, 2,3-Dimethyl-6-nitroquinoxaline] | 32.1 |
| Clc1ccc2ncc(-c3ccccc3)nc2c1 [Compound 4b, 7-Chloro-2-phenylquinoxaline] | 41.2 |
| Nc1ccc2ncc(-c3ccccc3)nc2c1 [Compound 6b, 3-Phenylquinoxalin-6-amine] | 44.1 |
| Cc1nc2ccc(Cl)cc2nc1C [Compound 4c, 6-Chloro-2,3-dimethylquinoxaline] | 37.4 |
| Clc1ccc2nccnc2c1 [Compound 4a, 6-Chloroquinoxaline] | 37.4 |
| Cc1nc2ccc(N)cc2nc1C [Compound 6c, 2,3-Dimethylquinoxalin-6-amine] | 29.2 |
| Nc1ccc2nccnc2c1 [Compound 6a, Quinoxalin-6-amine] | 32.9 |

====

The entries below come with measured IC50 values attached.
- SYSTEM: human recombinant acetylcholinesterase (HuAChE) (Homo sapiens)
- Construct: purchased Sigma-Aldrich
- PROCEDURE DETAILS: biochemical
MEASUREMENT TYPE: IC50 (µM)

| COMPOUND | SYSTEM | DATA VALUE |
| --- | --- | --- |
| Clc1ccc2nccnc2c1 [Compound 4a, 6-Chloroquinoxaline] | human recombinant acetylcholinesterase (HuAChE) (Homo sapiens) | 23.9 |
| c1ccc2nccnc2c1 [Compound 3a, Quinoxaline] | human recombinant acetylcholinesterase (HuAChE) (Homo sapiens) | 13.2 |
| Nc1ccc2nccnc2c1 [Compound 6a, Quinoxalin-6-amine] | human recombinant acetylcholinesterase (HuAChE) (Homo sapiens) | 0.74 |
| Cc1nc2ccccc2nc1C [Compound 3c, 2,3-Dimethylquinoxaline] | human recombinant acetylcholinesterase (HuAChE) (Homo sapiens) | 7.25 |

====

- SYSTEM: human recombinant acetylcholinesterase (HuAChE) (Homo sapiens, UniProt P22303)
- Construct: purchased Sigma-Aldrich
- Sequence (P22303 32-614): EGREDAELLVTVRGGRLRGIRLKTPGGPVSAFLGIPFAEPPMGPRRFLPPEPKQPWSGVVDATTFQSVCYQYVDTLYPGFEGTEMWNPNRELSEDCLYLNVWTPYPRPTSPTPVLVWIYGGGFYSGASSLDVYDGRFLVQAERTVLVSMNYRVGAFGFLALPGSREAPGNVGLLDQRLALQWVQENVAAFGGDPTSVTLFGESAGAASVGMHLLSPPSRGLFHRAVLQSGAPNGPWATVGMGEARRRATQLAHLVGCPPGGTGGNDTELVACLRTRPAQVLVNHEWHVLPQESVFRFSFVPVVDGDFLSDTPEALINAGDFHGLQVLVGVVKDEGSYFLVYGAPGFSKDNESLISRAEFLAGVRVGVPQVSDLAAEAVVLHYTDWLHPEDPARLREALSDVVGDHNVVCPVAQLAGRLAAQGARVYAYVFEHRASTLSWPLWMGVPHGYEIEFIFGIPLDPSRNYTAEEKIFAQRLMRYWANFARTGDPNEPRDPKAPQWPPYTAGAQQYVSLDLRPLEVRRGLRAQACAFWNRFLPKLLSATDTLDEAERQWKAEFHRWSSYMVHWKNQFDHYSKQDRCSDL
- PROCEDURE DETAILS: biochemical
- RUN PARAMETERS: HuAChE; mean ± SD, n = three independent experiments; read-out: IC50 AChE
pIC50: −log10 of the molar value.
MEASUREMENT TYPE: pIC50

| COMPOUND | SYSTEM | MEASUREMENT TYPE | DATA VALUE |
| --- | --- | --- | --- |
| O=[N+]([O-])c1ccc2ncc(-c3ccccc3)nc2c1 [Compound 5b, 7-Nitro-2-phenylquinoxaline] | human recombinant acetylcholinesterase (HuAChE) (Homo sapiens, UniProt P22303) | pIC50 | 4.41 |
| Cc1nc2ccc([N+](=O)[O-])cc2nc1C [Compound 5c, 2,3-Dimethyl-6-nitroquinoxaline] | human recombinant acetylcholinesterase (HuAChE) (Homo sapiens, UniProt P22303) | pIC50 | 5.07 |
| Cc1nc2ccc(Cl)cc2nc1C [Compound 4c, 6-Chloro-2,3-dimethylquinoxaline] | human recombinant acetylcholinesterase (HuAChE) (Homo sapiens, UniProt P22303) | pIC50 | 4.97 |
| Nc1ccc2ncc(-c3ccccc3)nc2c1 [Compound 6b, 3-Phenylquinoxalin-6-amine] | human recombinant acetylcholinesterase (HuAChE) (Homo sapiens, UniProt P22303) | pIC50 | 5.88 |
| Clc1ccc2ncc(-c3ccccc3)nc2c1 [Compound 4b, 7-Chloro-2-phenylquinoxaline] | human recombinant acetylcholinesterase (HuAChE) (Homo sapiens, UniProt P22303) | pIC50 | 4.55 |
| Cc1nc2ccc(N)cc2nc1C [Compound 6c, 2,3-Dimethylquinoxalin-6-amine] | human recombinant acetylcholinesterase (HuAChE) (Homo sapiens, UniProt P22303) | pIC50 | 7.11 |
| O=[N+]([O-])c1ccc2nccnc2c1 [Compound 5a, 6-Nitroquinoxaline] | human recombinant acetylcholinesterase (HuAChE) (Homo sapiens, UniProt P22303) | pIC50 | 4.67 |
| c1ccc(-c2cnc3ccccc3n2)cc1 [Compound 3b, 2-Phenylquinoxaline] | human recombinant acetylcholinesterase (HuAChE) (Homo sapiens, UniProt P22303) | pIC50 | 4.30 |

====

The entries below come with measured Selectivity BChE/AChE values attached.
- SYSTEM: human recombinant acetylcholinesterase (HuAChE) (Homo sapiens, UniProt P22303)
- Construct: purchased Sigma-Aldrich
- PROCEDURE DETAILS: biochemical
- RUN PARAMETERS: Selectivity index for AChE: IC50 BChE/IC50 AChE
MEASUREMENT TYPE: Selectivity BChE/AChE

| COMPOUND STRUCTURE | SYSTEM | DATA VALUE |
| --- | --- | --- |
| c1ccc(-c2cnc3ccccc3n2)cc1 | human recombinant acetylcholinesterase (HuAChE) (Homo sapiens, UniProt P22303) | 0.29 |
| c1ccc2nccnc2c1 | human recombinant acetylcholinesterase (HuAChE) (Homo sapiens, UniProt P22303) | 3.07 |
| O=[N+]([O-])c1ccc2nccnc2c1 | human recombinant acetylcholinesterase (HuAChE) (Homo sapiens, UniProt P22303) | 1.97 |
| O=[N+]([O-])c1ccc2ncc(-c3ccccc3)nc2c1 | human recombinant acetylcholinesterase (HuAChE) (Homo sapiens, UniProt P22303) | 1.56 |
